pIC50: recorded values
targetDesc: KRAS G12S (Homo sapiens, UniProt P01116+P62937, G12S)
Sequence (P01116 1-169 isoform P01116-2 G12S limits assumed): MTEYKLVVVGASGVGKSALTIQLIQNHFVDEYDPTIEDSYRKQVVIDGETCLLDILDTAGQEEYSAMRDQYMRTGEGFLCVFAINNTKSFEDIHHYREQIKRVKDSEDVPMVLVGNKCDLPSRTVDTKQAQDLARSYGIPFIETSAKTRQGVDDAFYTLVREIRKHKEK
Sequence (P62937 whole entry): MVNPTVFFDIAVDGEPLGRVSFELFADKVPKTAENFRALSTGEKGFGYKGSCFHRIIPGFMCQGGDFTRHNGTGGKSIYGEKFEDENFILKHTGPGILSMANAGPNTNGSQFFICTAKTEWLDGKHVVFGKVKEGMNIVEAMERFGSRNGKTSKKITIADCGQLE
assayOverview: Ras-Raf disruption / FRET / MOA assay (BRAF RBD)
Assay type: biochemical
conditionNotes: Ras-Raf disruption, with Cyclophilin A; read-out: KRAS G12S FRET data IC50
pIC50: −log10 of the molar value.

compound	targetDesc	measValue
CCn1c(-c2cccnc2[C@H](C)OC)c2c3cc(ccc31)-c1csc(n1)C[C@H](NC(=O)[C@H](C(C)C)N(C)C(=O)N1CCN(C(=O)[C@H]3CN3)CC1)C(=O)N1CCC[C@H](N1)C(=O)OCC(C)(C)C2	KRAS G12S (Homo sapiens, UniProt P01116+P62937, G12S)	7.00 to 8.00

Now, please, on to the next compound.
Find the recorded pIC50 belonging to CCn1c(-c2cccnc2[C@H](C)OC)c2c3cc(ccc31)-c1cc(O)cc(c1)C[C@H](NC(=O)[C@H](C(C)C)N(C)C(=O)N(C)C1CN(C(=O)[C@H]3CN3)C1)C(=O)N1CCC[C@H](N1)C(=O)OCC(C)(C)C2 (atropisomer, axis not shown) and report it.
6.00 to 7.00

---

targetDesc: KRAS G12D (Homo sapiens, UniProt P01116+P62937, G12D)
Sequence (P01116 1-169 isoform P01116-2 G12D limits assumed): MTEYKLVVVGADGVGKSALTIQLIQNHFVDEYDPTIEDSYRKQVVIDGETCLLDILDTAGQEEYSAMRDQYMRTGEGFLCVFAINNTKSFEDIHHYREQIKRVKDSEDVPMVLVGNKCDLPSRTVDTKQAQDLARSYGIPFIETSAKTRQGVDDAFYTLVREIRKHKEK
Sequence (P62937 whole entry): as the sequence (P62937 whole entry) above
assayOverview: Disruption of BRAF RBD interaction with Ras (FRET / MOA assay, with Cyclophilin A)
Assay type: biochemical
conditionNotes: read-out: KRAS G12D FRET data, IC50
IC50: recorded values

molecule	targetDesc	IC50
CCn1c(-c2cccnc2[C@H](C)OC)c2c3cc(ccc31)-c1csc(n1)C[C@H](NC(=O)[C@H](C(C)C)N(C)C(=O)N(C)C[C@@H]1CCCN1C)C(=O)N1CCC[C@H](N1)C(=O)OCC(C)(C)C2 [Example A504]	KRAS G12D (Homo sapiens, UniProt P01116+P62937, G12D)	1000 to 10000 nM
CCn1c(-c2cnccc2COC)c2c3cc(ccc31)-c1cc(O)cc(c1)C[C@H](NC(=O)[C@H](C(C)C)N1COCC1=O)C(=O)N1CCC[C@H](N1)C(=O)OCC(C)(C)C2 [Example A102]	KRAS G12D (Homo sapiens, UniProt P01116+P62937, G12D)	100 to 1000 nM
CCn1c(-c2cccnc2[C@H](C)OC)c2c3cc(ccc31)-c1cc(O)cc(c1)C[C@H](NC(=O)[C@H](C(C)C)N(C)C(=O)C13CNCC1C3)C(=O)N1CCC[C@H](N1)C(=O)OCC(C)(C)C2 (some centres unmarked) [Example A155]	KRAS G12D (Homo sapiens, UniProt P01116+P62937, G12D)	100 to 1000 nM
CCn1c(-c2cccnc2[C@H](C)OC)c2c3cc(ccc31)-c1cccc(c1)C[C@H](NC(=O)[C@H](C(C)C)N(C)C(=O)[C@H]1CCN(C(=O)C#CC3CC(F)(F)CN3C)C1)C(=O)N1CCC[C@H](N1)C(=O)OCC(C)(C)C2 (some centres unmarked) [Example A526]	KRAS G12D (Homo sapiens, UniProt P01116+P62937, G12D)	> 10000 nM
C=C(C)C(=O)N1CC(N(C)C(=O)N(C)[C@H](C(=O)N[C@H]2Cc3nc(cs3)-c3ccc4c(c3)c(c(-c3cccnc3[C@H](C)OC)n4CC)CC(C)(C)COC(=O)[C@@H]3CCCN(N3)C2=O)C(C)C)C1 (atropisomer, axis not shown) [Example A360]	KRAS G12D (Homo sapiens, UniProt P01116+P62937, G12D)	1000 to 10000 nM

Form field: IC50 recorded for CCn1c(-c2cnccc2COC)c2c3cc(ccc31)-c1cc(O)cc(c1)C[C@H](NC(=O)[C@H](C(C)C)N(C)C(=O)[C@@H]1CCCO1)C(=O)N1CCC[C@H](N1)C(=O)OCC(C)(C)C2 [Example A91] with KRAS G12D (Homo sapiens, UniProt P01116+P62937, G12D) (enter value)
1000 to 10000 nM

Form field: IC50 recorded for CCn1c(-c2cnccc2COC)c2c3cc(ccc31)-c1cc(O)cc(c1)C[C@H](NC(=O)[C@H](C(C)C)N(C)C(=O)[C@H]1CCN(C(=O)C3COC3)C1)C(=O)N1CCC[C@H](N1)C(=O)OCC(C)(C)C2 [Example A9] with KRAS G12D (Homo sapiens, UniProt P01116+P62937, G12D) (enter value)
1000 to 10000 nM

Form field: IC50 recorded for CCn1c(-c2cccnc2[C@H](C)OC)c2c3cc(ccc31)-c1csc(n1)C[C@H](NC(=O)[C@H](C(C)C)N(C)C(=O)N1CC(C(C)(C)OC)C1)C(=O)N1CCC[C@H](N1)C(=O)OCC(C)(C)C2 (atropisomer, axis not shown) [Example A614] with KRAS G12D (Homo sapiens, UniProt P01116+P62937, G12D) (enter value)
100 to 1000 nM

Form field: IC50 recorded for C=CC(=O)N1CC[C@H](C(=O)N(C)[C@H](C(=O)N[C@H]2Cc3cc(O)cc(c3)-c3ccc4c(c3)c(c(-c3cnccc3[C@H](C)OC)n4CC)CC(C)(C)COC(=O)[C@@H]3CCCN(N3)C2=O)C(C)C)C1 [Example A076] with KRAS G12D (Homo sapiens, UniProt P01116+P62937, G12D) (enter value)
100 to 1000 nM

Form field: IC50 recorded for CCn1c(-c2cnccc2COC)c2c3cc(ccc31)-c1cc(O)cc(c1)C[C@H](NC(=O)[C@H](C(C)C)N(C)C(=O)[C@H]1CCN(C(C)C)C1)C(=O)N1CCC[C@H](N1)C(=O)OCC(C)(C)C2 [Example A41] with KRAS G12D (Homo sapiens, UniProt P01116+P62937, G12D) (enter value)
100 to 1000 nM

Form field: IC50 recorded for CCn1c(-c2cccnc2[C@H](C)OC)c2c3cc(ccc31)-c1csc(n1)C[C@H](NC(=O)[C@H](C(C)C)N(C)C(=O)[C@H]1CCN(C)C1)C(=O)N1CCC[C@H](N1)C(=O)OCC(C)(C)C2 [Example A108] with KRAS G12D (Homo sapiens, UniProt P01116+P62937, G12D) (enter value)
1000 to 10000 nM

Form field: IC50 recorded for CCn1c(-c2cccnc2[C@H](C)OC)c2c3cc(ccc31)-c1cc(O)cc(c1)C[C@H](NC(=O)C1CCCC1C(F)F)C(=O)N1CCC[C@H](N1)C(=O)OCC(C)(C)C2 (some centres unmarked) [Example A254] with KRAS G12D (Homo sapiens, UniProt P01116+P62937, G12D) (enter value)
1000 to 10000 nM

Form field: IC50 recorded for CCn1c(-c2cccnc2[C@H](C)OC)c2c3cc(ccc31)-c1csc(n1)C[C@H](NC(=O)[C@H](C(C)C)N(C)C(=O)N1CCC3(CC1)CN(C)CCO3)C(=O)N1CCC[C@H](N1)C(=O)OCC(C)(C)C2 [Example A433] with KRAS G12D (Homo sapiens, UniProt P01116+P62937, G12D) (enter value)
1000 to 10000 nM

Form field: IC50 recorded for CCn1c(-c2cccnc2[C@H](C)OC)c2c3cc(ccc31)-c1csc(n1)C[C@H](NC(=O)[C@H](C(C)C)N(C)C(=O)N1CC(n3nc(C)cc3C)C1)C(=O)N1CCC[C@H](N1)C(=O)OCC(C)(C)C2 [Example A297] with KRAS G12D (Homo sapiens, UniProt P01116+P62937, G12D) (enter value)
1000 to 10000 nM

Form field: IC50 recorded for C=CC(=O)N1CCO[C@H]2CN(C(=O)N(C)[C@H](C(=O)N[C@H]3CN4CCC=C(C4)c4ccc5c(c4)c(c(-c4cccnc4[C@H](C)OC)n5CC)CC(C)(C)COC(=O)[C@@H]4CCCN(N4)C3=O)C(C)C)C[C@H]21 [Example A552] with KRAS G12D (Homo sapiens, UniProt P01116+P62937, G12D) (enter value)
1000 to 10000 nM

Form field: IC50 recorded for C=CC(=O)N1CC[C@H](C(=O)N(C)[C@H](C(=O)N[C@H]2Cc3cc(O)cc(c3)-c3ccc4c(c3)c(c(-c3ccc5cc(CN(C)C)n(C)c5c3)n4CC)CC(C)(C)COC(=O)[C@@H]3CCCN(N3)C2=O)C(C)C)C1 [Example A035] with KRAS G12D (Homo sapiens, UniProt P01116+P62937, G12D) (enter value)
> 10000 nM

Form field: IC50 recorded for CCn1c(-c2cc(N3CCN(C)CC3)cnc2[C@H](C)OC)c2c3cc(ccc31)-c1csc(n1)C[C@H](NC(=O)[C@H](C(C)C)N(C)C(=O)[C@H]1CCNC1=O)C(=O)N1CCC[C@H](N1)C(=O)OCC(C)(C)C2 (single isomer, unassigned) [Example A449] with KRAS G12D (Homo sapiens, UniProt P01116+P62937, G12D) (enter value)
1000 to 10000 nM
